Hey, just so you know, these numbers are from the supplement of paper PMC9170038.

# Tested on: MS2 coat protein
# PROTOCOL_DETAILS: apparent KD of MS2 coat protein; designed switch direction (-1 OFF switch, 1 ON switch): -1; higher = weaker reporter binding
# APPLIED_CONDITIONS: input ligand: none
For each of the sequences below, state its apparent KD of MS2 coat protein.
Output spec: scalar in µM, unitless text.

Lookup: For UAUCCACAUGAGGAUCACCCAUGUGAGGAUAUGUCCAUAUUCGGCAAAUCGGAUAUGGACAGAAGGCACACCGG [JR_Exclusion1_Sub011] (Eterna round: R96, puzzle: Exclusion 1) , what is its reported apparent KD of MS2 coat protein?
Found: 0.0352

Lookup: Reported apparent KD of MS2 coat protein, sequence AAUAACGAGCCGGUCCUCCACAUGAGGAUCACCCAUGUGUUCGUCUUGUAAAGUACUAUCACGAAAGUGAUAGUACA [mod jandersonlee2] (Eterna round: R97, puzzle: Sensor, turn-off variant 1) : ____
Found: 0.858

Lookup: Form field: reported apparent KD of MS2 coat protein of GCCGUAAGUGUGAGGAUAUACCUAUGGAAACAUAGGUAGAAGGCACAUGAGGAUCACCCAUGUCCUUAAUCGGC [Mat - Exclusion 4 - Eli Mod - D4] (Eterna round: R97, puzzle: Brourd's mod of Exclusion 4)
Found: 0.224

Lookup: // lookup apparent KD of MS2 coat protein for CAUGCUUCAUAGGAUAUGGAAGACGUACCGUCGCUAGAAGGAUGAACAUGAGGAUCACCCAUGUAAUACAGGGC [Eternabot (L2) Solution 64] (Eterna round: R97, puzzle: Exclusion 6)
Found: 0.0686

Lookup: Param item = GGGCCCGGAGGAUAUACAUGAGGAUCACCCAUGUAGGGCCCGGGUAUUCCCGGGUUUUGUAGAAGGCCGGGUUU [-33.8, -30.7 kcal, A 19%, 5a,5a] (Eterna round: R97, puzzle: Exclusion 3) ; retrieve measured apparent KD of MS2 coat protein.
Found: 0.0148

Lookup: Tell me the measured apparent KD of MS2 coat protein of AAAGGAUGCCUAGGAUAUUGACGAAGAAAGGAUUAAGAAGGAGGAAAUAUAUGAGGGAUCCACAUGAGGAUCACCCAUGUACAC [Beveinveor] (Eterna round: R96, puzzle: Exclusion NG 1) , please.
Found: 0.27

Lookup: I'd like to know its apparent KD of MS2 coat protein. The sequence in question is AACCAGCGAGGAUAUGCUUGCGCGUGUUCUGGUUAUAAUCGACUUGAGGAUCACCCAAGUAGAAGGUGCUGGCG [EX2 #55] (Eterna round: R97, puzzle: Exclusion 2)
Found: 0.147

Lookup: Request the reported apparent KD of MS2 coat protein associated with GGUGUGAGGCAGGAUAUGCAAUAAGUAAGUAAAGCAGAAGGGUCUACAUGAGGAUCACCCAUGUGUGCGGUAGA [Ex6 #1] (Eterna round: R97, puzzle: Exclusion 6)
Found: 0.163

Lookup: Could you share which apparent KD of MS2 coat protein value was measured for AUAAUGUCAGGAUAUCAGUCGUACAGCCUCGGCUGUACGACUGAGAAGGGACAUGAGGAUCACCCAUGUGGUUA [E4/7-A2] (Eterna round: R97, puzzle: Exclusion 4) ?
Found: 0.562

Lookup: I have this sequence here, AUUGUGUUAGGAUAUGCUUAUGGUGGGUAGUCCAGUAUGAAGUAGAAGGGACAUGAGGAUCACCCAUGUGCUGA [EX4 #36] (Eterna round: R97, puzzle: Exclusion 4) , and I need its recorded apparent KD of MS2 coat protein.
Found: 0.164
